target-desc: connexin26 (Cx26) hemichannel (Homo sapiens, UniProt P29033, G45E)
protocol-summary: voltage-clamp of hemichannel currents in Xenopus oocytes
pIC50: −log10 of the molar value.
endpoint-label: pIC50

Q. For connexin26 (Cx26) hemichannel (Homo sapiens, UniProt P29033, G45E), provide pIC50 of O[C@@H](c1cc(C(F)(F)F)nc2c(C(F)(F)F)cccc12)[C@H]1CCCCN1 (relative stereo) please.
A. ~4.80
